FYI, the data here is from patent US6872702B1.

Biological target: recombinant human uPAR (Homo sapiens, UniProt Q03405)
Construct: made in house; host or cells: CHO cells
Sequence (Q03405 23-299 limits assumed): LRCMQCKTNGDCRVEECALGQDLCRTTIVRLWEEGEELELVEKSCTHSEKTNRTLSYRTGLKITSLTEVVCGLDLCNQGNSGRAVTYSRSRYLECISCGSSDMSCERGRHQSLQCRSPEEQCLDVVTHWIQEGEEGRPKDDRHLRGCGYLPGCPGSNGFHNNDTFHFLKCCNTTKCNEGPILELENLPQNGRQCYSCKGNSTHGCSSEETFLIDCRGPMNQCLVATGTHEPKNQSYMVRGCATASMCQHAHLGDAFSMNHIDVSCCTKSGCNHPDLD
Experiment: Microtitre plate solid phase ATF-ligand binding test
Conditions: 0.6 ng ATF together with 15 μg synthetic peptide per ml; FIG. 2
reported-metric: inhibition of the binding of ATF to uPAR / uPAR binding capacity

INSERT INTO assay_data (substance, reported_measurement) VALUES
  ('uPA12-31: linear peptide from the receptor binding region of uPA, amino acids 12-31 as printed (DCLNGGTCVSNKYFSNIHWC)', 'effectively inhibit'),
  ('uPA10-32: linear peptide from the receptor binding region of uPA, amino acids 10-32 (NCDCLNGGTCVSNKYFSNIHWCN)', 'effectively inhibit'),
  ('uPA14-32: linear peptide from the receptor binding region of uPA, amino acids 14-32 (LNGGTCVSNKYFSNIHWCN)', 'effectively inhibit');
